Target: NADPH oxidase 4 (Homo sapiens)
Experiment: NOX4-dependent H2O2 signal modulators, primary screen, NOX inhibitor project, cell-based, HEK293-NOX4, tetracycline-induced, Amplex Red fluorescence (AID 1160)
Settings: 45 min, higher = more signal, called active from +8 up or from −8 down
Below, each entry is listed alongside its reported z-score.
Write the number on its own, no unit after it.

Examples with their reported z-score follow.
{"columns": ["compound", "tgt", "z-score"],
 "data": [
  ["O=C1C2C=CC(C(O)C3CCCCC3)N(Nc3ccc([N+](=O)[O-])cc3)C2C(=O)N1c1ccccc1 (configuration not stated)", "NADPH oxidase 4 (Homo sapiens)", -3.38],
  ["COc1ccc(CCNC(=O)[C@@]2(Sc3ccc(C)cc3)CC(=O)N(C3CCCCC3)[C@@H]2c2ccc(CO)cc2I)cc1", "NADPH oxidase 4 (Homo sapiens)", 0.672],
  ["C=CC[C@@]1(C(N)=O)N=C(c2ccc(OCCCO)cc2)O[C@@H]1c1ccccc1CN=[N+]=[N-]", "NADPH oxidase 4 (Homo sapiens)", 0.313],
  ["COCCOC(=O)N1C(=O)[C@@]2(c3cc(C#CCCO)ccc31)[C@H](C(=O)Nc1nc3ccccc3s1)[C@H]1C(=O)O[C@H](c3ccccc3)[C@H](c3ccccc3)N1[C@@H]2c1ccc(OCCO)cc1", "NADPH oxidase 4 (Homo sapiens)", 0.462],
  ["COc1ccc(C(O)C2C=CC3C(=O)NC(=O)C3N2Nc2ccccn2)c2ccccc12 (configuration not stated)", "NADPH oxidase 4 (Homo sapiens)", -3.5]
]}

Query: Using the record for `COC(=O)c1c(CC[C@@H](CO)NC(=O)N[C@H](Cn2cc(Cc3ccccc3)nn2)C(C)C)oc(C(C)=O)c1C(=O)OC` , state its measured z-score.
Reply: -1.31

Query: Using the record for `C=CCN1C(=O)[C@]2(O[C@H](CCO)[C@@H]([Si](C)(C)c3ccc(OC)cc3)[C@@H]2C)c2cc(N3CCCCC3=O)ccc21` , state its measured z-score.
Reply: 0.43
